- METHOD: Half life in rat plasma
- Assay type: ADME, organism-based
ASSAY READOUT: half-life (min)

- SAMPLE SMILES: "CC1(C)Cc2nc(C3CCCC3)c([C@@H](F)c3ccc(C(F)(F)F)cc3)c(C3CCCCC3)c2[C@@H](O)C1"
  UNITS LABEL: "min"
  OBSERVED: 432

* * *

- TARGET OR SYSTEM: Cholesteryl ester transfer protein (Homo sapiens)
- Sequence (P11597 whole entry): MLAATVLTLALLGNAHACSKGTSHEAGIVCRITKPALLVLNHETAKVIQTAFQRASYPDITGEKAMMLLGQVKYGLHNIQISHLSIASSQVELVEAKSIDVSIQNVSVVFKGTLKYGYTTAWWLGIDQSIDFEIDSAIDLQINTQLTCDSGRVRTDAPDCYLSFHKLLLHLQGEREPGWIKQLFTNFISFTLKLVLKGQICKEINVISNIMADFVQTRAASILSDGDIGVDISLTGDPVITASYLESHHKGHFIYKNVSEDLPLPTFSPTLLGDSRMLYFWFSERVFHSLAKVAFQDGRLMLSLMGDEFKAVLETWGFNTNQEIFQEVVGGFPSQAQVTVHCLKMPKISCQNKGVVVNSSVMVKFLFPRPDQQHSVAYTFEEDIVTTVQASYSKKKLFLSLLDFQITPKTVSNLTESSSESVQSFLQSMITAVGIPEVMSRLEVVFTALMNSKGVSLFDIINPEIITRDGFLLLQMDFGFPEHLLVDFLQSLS
- METHOD: Inhibition of CETP assessed as cholesterol ester transfer after 4 hrs by microemulsion based fluorescence assay

- COMPOUND: "CC1(C)Cc2nc(C3CCCC3)c([C@@H](O)c3ccc(C(F)(F)F)cc3)c(C3CCCCC3)c2[C@@H](O)C1 (relative stereo)"
  IC50 (µM): 0.1
- COMPOUND: "CC1(C)Cc2nc(C3CCCC3)c(C(=O)c3ccc(C(F)(F)F)cc3)c(N3CCCC3)c2[C@@H](O)C1"
  IC50 (µM): 4
- COMPOUND: "CC1(C)Cc2nc(C3CCCC3)c([C@@H](F)c3ccc(C(F)(F)F)cc3)c(-c3ccc(F)cc3)c2[C@@H](O)C1"
  IC50 (µM): 0.031
- COMPOUND: "CC(C)c1nc2c(c(C3CCCCC3)c1C(=O)c1ccc(C(F)(F)F)cc1)[C@@H](O)CC(C)(C)C2"
  IC50 (µM): 0.07
- COMPOUND: "CC1(C)Cc2nc(C3CCCC3)c(C(=O)c3ccc(C(F)(F)F)cc3)c(C3CCCC3)c2[C@@H](O)C1"
  IC50 (µM): 0.09
- COMPOUND: "CC1(C)Cc2nc(C3CCCC3)c(Cc3ccc(C(F)(F)F)cc3)c(C3CCCCC3)c2[C@@H](O)C1"
  IC50 (µM): 0.039
- COMPOUND: "CC1(C)Cc2nc(C3CCCC3)c(C(=O)c3ccc(C(F)(F)F)cc3)c(C3CCCCC3)c2[C@@H](O)C1"
  IC50 (µM): 0.06
- COMPOUND: "O[C@@H](c1ccc(C(F)(F)F)cc1)c1c(C2CCCC2)nc2c(c1C1CCCCC1)[C@@H](O)CC1(CCC1)C2"
  IC50 (µM): 0.1
- COMPOUND: "CCCc1c(C(=O)c2ccc(C(F)(F)F)cc2)c(C2CCCC2)nc2c1[C@@H](O)CC1(CCC1)C2"
  IC50 (µM): 0.6
- COMPOUND: "CC1(C)Cc2nc(C3CCCC3)c(C(=O)c3ccc(C(F)(F)F)cc3)c(CN3CCCCC3)c2[C@@H](O)C1"
  IC50 (µM): 15
- COMPOUND: "CC(C)c1nc2c(c(C3CCCCC3)c1[C@@H](F)c1ccc(C(F)(F)F)cc1)[C@@H](O)CC1(CCC1)C2"
  IC50 (µM): 0.017
- COMPOUND: "CCc1c(C(=O)c2ccc(C(F)(F)F)cc2)c(C2CCCC2)nc2c1[C@@H](O)CC(C)(C)C2"
  IC50 (µM): 4.5
- COMPOUND: "CC(C)c1nc2c(c(C3CCCCC3)c1[C@@H](O)c1ccc(C(F)(F)F)cc1)[C@@H](O)CC1(CCC1)C2"
  IC50 (µM): 0.07
- COMPOUND: "CC(C)c1nc2c(c(C3CCCCC3)c1[C@@H](F)c1ccc(C(F)(F)F)cc1)[C@@H](O)CC(C)(C)C2"
  IC50 (µM): 0.03
- COMPOUND: "CC1(C)Cc2nc(C3CCCC3)c([C@@H](F)c3ccc(C(F)(F)F)cc3)c(C3CCCCC3)c2[C@@H](O)C1"
  IC50 (µM): 0.025
- COMPOUND: "CC1(C)Cc2nc(C3CCCC3)c(C(=O)c3ccc(C(F)(F)F)cc3)c(CC(F)(F)F)c2[C@@H](O)C1"
  IC50 (µM): 3
